Assay: Cell viability (%) by flow cytometry
Format: cell-based, Chinese hamster
Conditions: CHO cells, Protocol B, shuttle 35 μM, GFP-NLS 5 μM, 10 seconds, read-out: Cell viability (%) (±St. Dev.; n = 3)
Where no end group is shown, it is not given here.
assay.metric: viability at 10 s, 35 µM
Quick note: number first, unit second.

What measured viability at 10 s, 35 µM goes with HHHHHHKWKLFKKIGAVLKVLTTGYARAAARQARA [His-CM18-PTD4] ? 92.8%

###

Test: Cell toxicity / % cell viability by flow cytometry (cells in total events v. untreated)
Type: cell-based, Human
Conditions: human, HeLa cells, Cell viability (%) (±St. Dev.; n = 3), FIG. 13B; HeLa; GFP-NLS 5 μM; shuttle 1 μM; 1 hour; read-out: Cell viability (%) (±St. Dev.; n = 3), FIG. 13B
Where no end group is shown, it is not given here.
assay.metric: viability at 1 h, 1 µM

Which value of viability at 1 h, 1 µM has been reported for KWKLFKKIGAVLKVLTTGYGRKKRRQRRRC [CM18-TAT-Cys] in the records? 93%
